# credit: paper PMC7143076

# study-system: CAS3 (Sordaria macrospora, UniProt F7VU04)
# Construct: gene SMAC_03179
# Sequence (F7VU04 1-174 limits assumed): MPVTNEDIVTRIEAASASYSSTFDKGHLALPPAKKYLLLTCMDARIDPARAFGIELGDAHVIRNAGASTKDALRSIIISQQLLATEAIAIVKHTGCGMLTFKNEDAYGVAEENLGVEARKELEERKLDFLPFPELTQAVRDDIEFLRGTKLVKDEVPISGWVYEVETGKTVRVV
# protocol: stopped-flow CO2 hydrase assay
# Format: biochemical
# condition-summary: read-out: CAS2 ^b; CO2 1.7-17 mM; pH 8.3, 10-20 mM TRIS, 10 mM NaClO4, 20 °C; 15 min preincubation; sodium salt
quantity-measured: pKi
Give bare numbers, as −log10 of the molar value.

Data request: I would be grateful if you could share the reported pKi for O=C(O)O .
Data returned: 2.10

----------
What pKi was measured for each of the following?
# study-system: CAS3 (Sordaria macrospora, UniProt F7VU04)
# Construct: gene SMAC_03179
# protocol: stopped-flow CO2 hydrase assay
# Format: biochemical
# condition-summary: read-out: CAS3 ^c; CO2 1.7-17 mM; pH 8.3, 10-20 mM TRIS, 10 mM NaClO4, 20 °C; 15 min preincubation
Give bare numbers, as −log10 of the molar value.

OB(O)c1ccccc1 [Ph-B(OH)2]
4.01

Let's switch to this compound now.
Data request: Fill blank: measured pKi of the compound NS(N)(=O)=O [H2NSO2NH2] is ____.
Data returned: 4.03

----------
# study-system: CAS3 (Sordaria macrospora)
# Construct: gene SMAC_03179
# protocol: stopped-flow CO2 hydrase assay
# Assay type: biochemical
# condition-summary: read-out: CAS3 ^c; CO2 1.7-17 mM; pH 8.3, 10-20 mM TRIS, 10 mM NaClO4, 20 °C; 15 min preincubation; sodium salt
quantity-measured: log10(Ki) (log10 of the value in mM)
Heads up, the numbers here are log10 of Ki in mM units.

The following compounds have reported results that may help.
CCN(CC)C(=S)S
-0.05
NS(=O)(=O)O
-1.02
S=C(S)S
0.93
O=NO
0.92
N#CS
0.86

For every item in the list below, what is its measured log10(Ki)?
1. O=C(O)O
2. O=[N+]([O-])O

Data returned:
1. 0.53
2. 0.93

----------
# study-system: CAS3 (Sordaria macrospora, UniProt F7VU04)
# Construct: gene SMAC_03179
# protocol: stopped-flow CO2 hydrase assay
# Format: biochemical
# condition-summary: read-out: CAS3 ^c
quantity-measured: pKi
Answers are plain numbers, as −log10 of the molar value.

N#CO
2.49

State the recorded pKi for every item in the following list.
1. N#C[SeH]
2. S

Data returned:
[2.15, 2.08]

Each molecule below has a reported value. Please supply its pKi.
1. [N-]=[N+]=[N-]
2. O=[Se](=O)(O)O
3. O=[Te](=O)(O)O

Data returned:
1: 2.14; 2: 2.47; 3: 2.09
